Target Of Assay: human IL-23R (Homo sapiens, UniProt Q5VWK5)
Construct: Nanoluc luciferase (Nluc); secretion signal encoded by the plasmid (not specified); expressed in transfected cells; crude membranes used in the assay
Sequence (Q5VWK5 22-629): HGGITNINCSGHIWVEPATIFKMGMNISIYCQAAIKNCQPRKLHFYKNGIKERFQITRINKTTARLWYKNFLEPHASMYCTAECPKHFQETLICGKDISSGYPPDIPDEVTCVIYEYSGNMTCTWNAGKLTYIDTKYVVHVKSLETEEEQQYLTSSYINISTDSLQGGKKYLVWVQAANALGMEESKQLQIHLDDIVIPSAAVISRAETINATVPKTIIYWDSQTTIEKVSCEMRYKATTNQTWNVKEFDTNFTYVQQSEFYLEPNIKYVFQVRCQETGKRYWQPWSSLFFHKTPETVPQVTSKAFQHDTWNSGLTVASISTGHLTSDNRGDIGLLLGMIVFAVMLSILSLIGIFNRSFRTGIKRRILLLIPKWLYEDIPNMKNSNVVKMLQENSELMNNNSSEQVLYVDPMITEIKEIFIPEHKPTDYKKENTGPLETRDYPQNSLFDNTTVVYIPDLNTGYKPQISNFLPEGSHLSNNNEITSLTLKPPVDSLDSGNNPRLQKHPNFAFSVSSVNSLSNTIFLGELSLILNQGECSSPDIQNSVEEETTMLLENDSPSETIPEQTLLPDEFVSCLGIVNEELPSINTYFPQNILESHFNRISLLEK
Test Details: Binding assay: displacement of fluorophore (TAMRA)-labelled reference compound from human IL-23R (BRET, Nluc-IL23R fusion protein membranes)
Condition Summary: read-out: % displacement (hIL-23R binding)
*1 amine or outer side, *2 acyl side, *3 side chain or, on linkers, in order; H or OH if unused. Where a SMILES comes first, the peptide text is derived from it. Bridges are numbered along the chain shown (N, C = ends). [ ]: non-standard residue; d: D form. 2Nal = N[C@@H](Cc1ccc2ccccc2c1)C(=O)O; AEF = NCCOc1ccc(C[C@H](N)C(=O)O)cc1; X1 = O=C(Cc1ccc(CN[*:1])cc1)[*:2]; 3Pal = N[C@@H](Cc1cccnc1)C(=O)O; αMeL = CC(C)C[C@](C)(N)C(=O)O; NMeA = CN[C@@H](C)C(=O)O; Dab = NCC[C@H](N)C(=O)O; Aib = CC(C)(N)C(=O)O
This section presents compounds with their documented Emax values.
Report the figure in % without appending any unit label.

Compound	Measurement Units	Emax
CNC(=O)[C@H](Cc1cccnc1)NC(=O)[C@H](CCN)NC(=O)[C@@H]1CCC(=O)NCc2ccc(cc2)CC(=O)N[C@@H](CO)C(=O)N[C@H]2CCC(=O)NCC[C@H](NC(=O)[C@H](Cc3ccccc3)NC(=O)[C@H](Cc3c[nH]c4ccccc34)NC2=O)C(=O)N[C@@H](Cc2ccc(OCCN)cc2)C(=O)N[C@@H](Cc2ccc3ccccc3c2)C(=O)N[C@@](C)(CC(C)C)C(=O)N1 [Compound 23] ([X1]SEWF[Dab][AEF][2Nal][αMeL]E[Dab][3Pal]-NHMe; lactam 3-6, N-10)	%	97
CNC(=O)[C@H](Cc1cccnc1)NC(=O)[C@H](CCN)NC(=O)[C@@H]1CCC(=O)NCc2ccc(cc2)CC(=O)N[C@@H](C)C(=O)N[C@H]2CCC(=O)NCC[C@H](NC(=O)[C@H](CCC(N)=O)NC(=O)[C@H](Cc3c[nH]c4ccccc34)NC2=O)C(=O)N[C@@H](Cc2ccc(OCCN)cc2)C(=O)N[C@@H](Cc2ccc3ccccc3c2)C(=O)N[C@@](C)(CC(C)C)C(=O)N1	%	97
CC(C)C[C@]1(C)NC(=O)[C@H](Cc2ccc3ccccc3c2)NC(=O)[C@H](Cc2ccc(OCCN)cc2)NC(=O)[C@@H]2CCNC(=O)CC[C@H](NC(=O)[C@H](CO)NC(=O)Cc3ccc(cc3)CNC(=O)CC[C@@H](C(=O)N[C@@H](CCN)C(=O)N[C@@H](Cc3cn(C)cn3)C(N)=O)NC1=O)C(=O)N[C@@H](Cc1c[nH]c3ccccc13)C(=O)N[C@@H](CCC(N)=O)C(=O)N2	%	102
CC(C)C[C@]1(C)NC(=O)[C@H](Cc2ccc3ccccc3c2)NC(=O)[C@H](Cc2ccc(OCCN)cc2)NC(=O)[C@@H]2CCNC(=O)CC[C@H](NC(=O)[C@H](CO)NC(=O)Cc3ccc(cc3)CNC(=O)CC[C@@H](C(=O)N[C@@H](CCN)C(=O)N[C@@H](Cc3c[nH]cn3)C(=O)N[C@@H](Cc3cccnc3)C(N)=O)NC1=O)C(=O)N[C@@H](Cc1c[nH]c3ccccc13)C(=O)N[C@@H](CCC(N)=O)C(=O)N2 [Compound 12] ([X1]SEWQ[Dab][AEF][2Nal][αMeL]E[Dab]H[3Pal]-NH2; lactam 3-6, N-10)	%	104
CNC(=O)[C@H](Cc1cccnc1)NC(=O)[C@H](COC)NC(=O)[C@@H]1CCC(=O)NCc2ccc(cc2)CC(=O)N[C@@H](C)C(=O)N[C@H]2CCC(=O)NCC[C@H](NC(=O)[C@H](CCC(N)=O)NC(=O)[C@H](Cc3c[nH]c4ccccc34)NC2=O)C(=O)N[C@@H](Cc2ccc(N3CCOCC3)cc2)C(=O)N[C@@H](Cc2ccc3ccccc3c2)C(=O)NC(C)(C)C(=O)N1	%	102

For the next question, use this compound.
**Q:** Requested field: Emax. Item: CNC(=O)[C@H](Cc1cccnc1)NC(=O)[C@H](CCN)NC(=O)[C@@H]1CCC(=O)NCc2ccc(cc2)CC(=O)N(C)[C@@H](C)C(=O)N[C@H]2CCC(=O)NCC[C@H](NC(=O)[C@H](CCC(N)=O)NC(=O)[C@H](Cc3c[nH]c4ccccc34)NC2=O)C(=O)N[C@@H](Cc2ccc(OCCN)cc2)C(=O)N[C@@H](Cc2ccc3ccccc3c2)C(=O)NC(C)(C)C(=O)N1 [Compound 48] ([X1][NMeA]EWQ[Dab][AEF][2Nal][Aib]E[Dab][3Pal]-NHMe; lactam 3-6, N-10)
**A:** 96
